Numbers sourced from patent EP0139358B1.

Test system: Long-Evans rats or squirrel-monkeys
Assay: Antipsychotic lever-push shock avoidance protocol (SIDR)
Type: in vivo
Settings: Rattus norvegicus; shock avoidance lever pushing; read-out: SIDR ED50
Lab note: compare ED50 with 9 mg/kg, writing true if less and false if equal or more.

>>> category("CC(=O)OC[C@H]1O[C@@H](n2cnc3c(NCC(c4ccccc4)c4ccccc4)ncnc32)[C@H](OC(C)=O)[C@@H]1OC(C)=O")
"false"
>>> category("OC[C@H]1O[C@@H](n2cnc3c(NCC(c4ccccc4)c4ccccc4)nc(Cl)nc32)[C@H](O)[C@@H]1O")
"false"
>>> category("CC(CNc1ncnc2c1ncn2[C@@H]1O[C@H](CO)[C@@H](O)[C@H]1O)(c1ccccc1)c1ccccc1")
"true"
>>> category("Nc1nc(NCC(c2ccccc2)c2ccccc2)c2ncn([C@@H]3O[C@H](CO)[C@@H](O)[C@H]3O)c2n1")
"true"
>>> category("OC[C@H]1O[C@@H](n2cnc3c(NC(c4ccccc4)c4ccccc4)ncnc32)[C@H](O)[C@@H]1O [Example 5, N^6-Diphenylmethyladenosine, reference compound]")
"false"
>>> category("OC[C@H]1O[C@@H](n2cnc3c(NCC(c4ccccc4)c4ccc(F)cc4)ncnc32)[C@H](O)[C@@H]1O (stereo partly shown)")
"true"
>>> category("OC[C@H]1O[C@@H](n2cnc3c(NCC(c4ccccc4)c4ccc(Cl)cc4)ncnc32)[C@H](O)[C@@H]1O (stereo partly shown)")
"false"
